Documented binding affinity across a set of binders
- TEST_TARGET: claudin 18.2 (CLDN 18.2), recombinant protein (human)
- Sequence (chain, as listed by the source limits assumed): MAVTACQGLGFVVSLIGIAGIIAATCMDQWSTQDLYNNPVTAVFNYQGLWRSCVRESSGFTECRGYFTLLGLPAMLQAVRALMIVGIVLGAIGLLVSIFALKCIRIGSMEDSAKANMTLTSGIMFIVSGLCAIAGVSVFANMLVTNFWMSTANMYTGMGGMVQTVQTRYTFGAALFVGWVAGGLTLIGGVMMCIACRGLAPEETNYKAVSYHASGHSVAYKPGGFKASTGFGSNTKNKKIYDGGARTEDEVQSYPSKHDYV
- PROTOCOL_SUMMARY: competitive phage ELISA, phage-displayed Fab, coated and soluble CLDN 18.2
- Parameters: unit not given here
Number, no unit, nothing else.

Record excerpt, results attached:
9O47-oaeE (9O47-oae with LC55E), phage-displayed Fab (Fab, V domains shown, also called 9O47 oaeL2; 9O47 with 5C9oae and L2 mutations) VH: EVQLVESGGGLVQPGGSLRLSCAVSGYTFSMNWVRQAPGKGLEWVAWINMYTGEPIYADDFKGRFTISRDDSKNTLYLQMNSLRAEDTAVYYCARLYRGNSLDYWGQGTLVTVSS VL: DIQMTQSPSSLSASVGDRVTITCKSSQSLLNWGNQKSYLTWYQQKPGKAPKLLIYWASTLESGVPSRFSGSGSGTDYTLTISSLQPEDFATYYCQNAYFFPFTFGQGTKVEIK; 0.0533
9O36-oae with LC55E, phage-displayed Fab (Fab, V domains shown, built from 9O36-oae with light chain residue 55 (Kabat; the sixth residue of VL CDR2 WASTLMS) mutated back to Glu; also called 9O36 oaeL2) VH: EVQLVESGGGLVQPGGSLRLSCAVSGYTFSMNWVRQAPGKGLEWVAWINMYTGEPTYADDFKGRFTISRDDSKNTLYLQMNSLRAEDTAVYYCARLYRGNSLDYWGQGTLVTVSS VL: DIQMTQSPSSLSASVGDRVTITCKSSQSLLNWGNQKSYLTWYQQKPGKAPKLLIYWASTLESGVPSRFSGSGSGTDYTLTISSLQPEDFATYYCQNAYFFPFTFGQGTKVEIK; 0.059

Moving on to the next binder.
# return recorded binding affinity for entry 9O47, phage-displayed Fab (Fab, V domains shown) VH: EVQLVESGGGLVQPGGSLRLSCAVSGYTFSMNWVRQAPGKGLEWVAWINMYTGEPIYADDFKGRFTISRDDSKNTLYLQMNSLRAEDTAVYYCARLYNGNSLDYWGQGTLVTVSS VL: DIQMTQSPSSLSASVGDRVTITCKSSQSLLNWGNQKSYLTWYQQKPGKAPKLLIYWASTLFSGVPSRFSGSGSGTDYTLTISSLQPEDFATYYCQNAYSFPFTFGQGTKVEIK
0.095
